Just for reference, patent US8557816B2 is where these values come from.

Biological target: AuroraA-TPX2 (Homo sapiens)
Construct: 20 μL of AuroraA-TPX2 KD GST for a final volume of about 41 μL; GST
Sequence (O14965 133-383 limits assumed): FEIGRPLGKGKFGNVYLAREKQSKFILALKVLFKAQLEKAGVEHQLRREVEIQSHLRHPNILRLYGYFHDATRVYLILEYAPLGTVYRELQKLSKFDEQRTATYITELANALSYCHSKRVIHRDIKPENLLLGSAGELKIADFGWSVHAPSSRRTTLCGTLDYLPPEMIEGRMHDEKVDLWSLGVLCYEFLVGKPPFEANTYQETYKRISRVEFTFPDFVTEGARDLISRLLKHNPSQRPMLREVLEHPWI
Sequence (Q9ULW0 1-43 partner limits assumed): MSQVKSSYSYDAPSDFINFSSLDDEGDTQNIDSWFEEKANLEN
Assay: AuroraA-TPX2 Homogeneous Time Resolved Fluorescent (HTRF) kinase assay
Type: biochemical
Details: average; read-out: AurA_IC50_IP (uM Avg)
outcome measure: IC50 (µM)

1. c1ccc(-c2nnc(Nc3ccc(Oc4ccnc5c4NCCC5)cc3)c3ccccc23)cc1 5

[a] Clc1ccc(-c2nnc(Nc3ccc(Oc4ncnc5[nH]ccc45)cc3)c3ccccc23)cc1
[b] FC(F)(F)Oc1ccc2c(Oc3ccc(Nc4nnc(-c5ccccc5)c5ccccc45)cc3)ccnc2c1
[c] Cc1csc(-c2nnc(Nc3ccc(Oc4ccnc5ccc(OC(F)(F)F)cc45)cc3)c3ccccc23)c1
Reorder the items by IC50, least to greatest. List labels; respect the requested ordering.
c, a, b
(c: 0.226 µM, a: 0.35 µM, b: 1.04 µM)

[A] COc1cnc2c(Sc3ccc(Nc4nnc(N5CCn6ccnc6C5)c5ccccc45)cc3)ccnc2c1
[B] COc1cnc2c(Sc3ccc(Nc4nnc(OC(C)C)c5ccccc45)cc3)ccnc2c1
Between these two entries, A and B , state which has the higher IC50. State the label of the item chosen.
B
